# TEST: gradient 5% acetonitrile 3 min, to 50% in 2 min, to 85% in 15 min, held 3 min, 100 µL/min
# TEST_PARAMETERS: column: Zorbax Extend-C18 2.1 x 50 mm; eluents: water / acetonitrile, 0.1% formic acid
// boundary case: RP-LC retention time equal to 700 s maps to No; strictly smaller maps to Yes

• COc1cccc(Cn2cc(C(=O)O)nn2)c1 = Yes

Exercise: Lab note: RP-LC retention time threshold 700 s. Does this molecule come in strictly under it? CCCn1c(C)c(C)c(S(=O)(=O)c2ccc(OC)cc2)c1NC(=O)C1CCCO1 (stereo not given)
Solution: No
